target.desc: Jun bZIP R272A;Fos bZIP K148A (human;human, UniProt P05412;P01100 252-315;137-200, R272A|K148A)
Sequence (P05412 252-315 R272A, chain 1 of 2): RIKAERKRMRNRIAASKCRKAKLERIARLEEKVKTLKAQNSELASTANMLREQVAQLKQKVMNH
Sequence (P01100 137-200 K148A, chain 2 of 2): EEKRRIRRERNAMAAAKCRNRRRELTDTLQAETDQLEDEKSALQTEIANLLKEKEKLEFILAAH
test.name: ITC
pKd: −log10 of the molar value.
measure.name: pKd

1) TRE duplex 15-mer (dsDNA) DNA 1: CGCGTGACTCACCCC DNA 2: GGGGTGAGTCACGCG ... 6.15

Origin of the recorded values: paper PMC3154423
